Hello, the source for this data is patent US8101782B2, in case you need it.

# Test system: male CD IGS (Sprague Dawley derived) rats
# experimentSummary: Determination of the dose range and time course for cholinergic effects (gross signs, salivation)
# studyConditions: s.c., doses 1, 3, 10, 30 and 100 mg/kg; observed up to 4 hours
Listing of recorded Max Tolerated Dose by entry.

compound	Max Tolerated Dose
C[C@@H](c1cccc(OC(=O)N(C)CCc2ccccn2)c1)N(C)C [Compound 11, S-rivastigmine-betahistine]	30
C[C@@H](c1cccc(OC(=O)N[C@@H]2C[C@H]2c2ccccc2)c1)N(C)C [Compound 2, S-rivastigmine-tranylcypromine]	30

====

# target: BuChE (Homo sapiens, UniProt P06276)
# Sequence (P06276 29-602): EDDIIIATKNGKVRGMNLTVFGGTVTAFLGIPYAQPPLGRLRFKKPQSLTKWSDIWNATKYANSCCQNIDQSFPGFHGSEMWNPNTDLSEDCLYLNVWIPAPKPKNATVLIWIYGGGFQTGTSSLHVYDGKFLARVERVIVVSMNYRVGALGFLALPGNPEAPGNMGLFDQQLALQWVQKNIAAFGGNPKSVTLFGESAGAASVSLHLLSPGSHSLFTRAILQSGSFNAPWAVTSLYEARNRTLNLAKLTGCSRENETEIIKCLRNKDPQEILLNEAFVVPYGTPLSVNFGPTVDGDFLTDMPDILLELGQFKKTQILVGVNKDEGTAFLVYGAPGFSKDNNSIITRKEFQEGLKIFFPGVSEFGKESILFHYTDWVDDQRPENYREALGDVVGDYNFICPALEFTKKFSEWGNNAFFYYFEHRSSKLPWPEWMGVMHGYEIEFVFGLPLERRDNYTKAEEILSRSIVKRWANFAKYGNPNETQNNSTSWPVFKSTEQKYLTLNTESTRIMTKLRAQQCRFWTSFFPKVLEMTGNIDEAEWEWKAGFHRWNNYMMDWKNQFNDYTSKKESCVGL
# experimentSummary: In vitro screening assay, BuChE inhibition
# Format: biochemical
# studyConditions: 10 μM compound
attributeMeasured: BuChEI (%) 10 μM

compound	valueObserved
C[C@@H](c1cccc(OC(=O)N[C@@H]2C[C@H]2c2ccccc2)c1)N(C)C	67
CC(CC1CCCCC1)N(C)C(=O)Oc1cccc([C@H](C)N(C)C)c1 (stereo partly drawn)	100
CC(NC(=O)Oc1cccc([C@H](C)N(C)C)c1)C12CC3CC(CC(C3)C1)C2 (stereo partly drawn)	13
C[C@@H](c1cccc(OC(=O)N(C)CCc2ccccn2)c1)N(C)C	100
C[C@@H](c1cccc(OC(=O)N2CCC(=C3c4ccc(Cl)cc4CCc4cccnc43)CC2)c1)N(C)C	6
CCOC(=O)C1=C(COCCNC(=O)Oc2cccc([C@H](C)N(C)C)c2)NC(C)=C(C(=O)OC)C1c1ccccc1Cl (stereo partly drawn)	6

====

# target: human recombinant acetylcholinesterase (Homo sapiens, UniProt P22303)
# Construct: purchased Sigma Chemical Co (St. Louis, Mo.) C1682
# Sequence (P22303 32-614): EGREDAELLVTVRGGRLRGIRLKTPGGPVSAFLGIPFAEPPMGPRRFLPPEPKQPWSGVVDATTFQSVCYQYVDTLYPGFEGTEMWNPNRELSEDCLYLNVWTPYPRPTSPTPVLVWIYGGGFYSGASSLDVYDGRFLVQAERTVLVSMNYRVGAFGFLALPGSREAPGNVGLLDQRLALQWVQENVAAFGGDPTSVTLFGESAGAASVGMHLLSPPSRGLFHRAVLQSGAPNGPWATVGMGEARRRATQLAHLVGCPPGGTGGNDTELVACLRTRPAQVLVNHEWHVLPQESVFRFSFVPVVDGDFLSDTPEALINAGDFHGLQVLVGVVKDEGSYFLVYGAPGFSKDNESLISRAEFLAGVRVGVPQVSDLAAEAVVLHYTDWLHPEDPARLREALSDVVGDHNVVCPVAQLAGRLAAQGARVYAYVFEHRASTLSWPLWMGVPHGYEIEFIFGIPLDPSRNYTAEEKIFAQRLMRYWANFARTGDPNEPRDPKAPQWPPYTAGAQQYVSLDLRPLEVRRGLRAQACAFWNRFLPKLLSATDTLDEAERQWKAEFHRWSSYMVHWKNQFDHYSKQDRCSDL
# experimentSummary: Inhibition of acetylcholinesterase in vitro (modified Ellman colorimetric method, Dixon plot)
# Assay type: biochemical
# studyConditions: human recombinant AChE, 25° C., 30 minutes preincubation, 0.3 mM acetylthiocholine, pH 8
pIC50: −log10 of the molar value.
attributeMeasured: pIC50

compound	valueObserved
C[C@@H](c1cccc(OC(=O)NCC(CC(=O)O)c2ccc(Cl)cc2)c1)N(C)C (stereo partly shown)	4.77
C[C@@H](c1cccc(OC(=O)N(C)CCc2ccccn2)c1)N(C)C	4.88
CCOC(=O)C1=C(COCCNC(=O)Oc2cccc([C@H](C)N(C)C)c2)NC(C)=C(C(=O)OC)C1c1ccccc1Cl (stereo partly shown)	5.43
CC(NC(=O)Oc1cccc([C@H](C)N(C)C)c1)C12CC3CC(CC(C3)C1)C2 (stereo partly shown)	5.35

====

# key: entry, value: log10 of IC50
# target: human recombinant acetylcholinesterase (Homo sapiens)
# experimentSummary: Inhibition of acetylcholinesterase in vitro (modified Ellman colorimetric method, Dixon plot)
# studyConditions: human recombinant AChE, 25° C., 30 minutes preincubation, 0.3 mM acetylthiocholine, pH 8
attributeMeasured: log10 of IC50 (log10 of the value in µM)

compound	valueObserved
C[C@@H](c1cccc(OC(=O)NC23CC4CC(CC(C4)C2)C3)c1)N(C)C	1.86
C[C@@H](c1cccc(OC(=O)N2CCN(c3cc4c(cc3F)c(=O)c(C(=O)O)cn4C3CC3)CC2)c1)N(C)C	1.73
C[C@@H](c1cccc(OC(=O)N[C@@]23CC4C[C@@](C)(C[C@@](C)(C4)C2)C3)c1)N(C)C [Compound 17, S-riva memantine]	0.76
C[C@@H](c1cccc(OC(=O)N[C@@H]2C[C@H]2c2ccccc2)c1)N(C)C	-0.70
C[C@@H](c1cccc(OC(=O)N2CCC(=C3c4ccc(Cl)cc4CCc4cccnc43)CC2)c1)N(C)C	1.10
CC(C)C[C@@H](CNC(=O)Oc1cccc([C@H](C)N(C)C)c1)CC(=O)O	1.40
